# Tested on: c-Src;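 note: 11-residue human phosphosite peptides and single-mutation variants displayed on the E. coli surface, counted by deep sequencing, each peptide's frequency after selection divided by its frequency in the unselected input library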;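 note: frequency after pTyr selection over input frequency; kinase dosed for 20-30% of maximal phosphorylation in three min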
# Assay: phosphorylation enrichment, bacterial display (enrichment ratio); higher = better substrate or ligand; peptides without Tyr show the background
In this section, each of the sequences is paired with its reported phosphorylation enrichment.

The cases that follow already have their phosphorylation enrichment on record.
Report phosphorylation enrichment, nothing else, for this sequence: AEDKPYAELWM [MPI_Y46]
3.47

Please look at this sequence and report its phosphorylation enrichment: RQEEEYKRFSE [SFSWAP_Y133_L136F]
0.554

Retrieve phosphorylation enrichment measured for FTRNYYVWAVL [CYBA_Y88_R90W] and print it.
0.506

Specify measured phosphorylation enrichment for MMVGAYSSLEG [ECPAS_Y470_T472S] .
0.671

State its phosphorylation enrichment for this sequence: FASVEYQEALS [GALNS_Y461_A459V]
0.442

Look up and report measured phosphorylation enrichment for this entry: ALPGEYIPTVF [RAC1_Y32_F28L]
0.514

Answer with reported phosphorylation enrichment of NESVDYRATFP [MET_Y1003]
0.418

For VGQRPYQPLPE [REEP3_Y170] , write its phosphorylation enrichment.
0.393

Continuing:
Write down phosphorylation enrichment measured for item EREYKYGAHNH [OAT_Y50_Y55H]
0.415

Please look at this sequence and report its phosphorylation enrichment: TTSQLYDAVPI [PDPK1_Y9]
7.33

Indicate its recorded phosphorylation enrichment; the sequence in question is MTFQNYRQALF [FAM20C_Y279_G280R]
0.462

Given the sequence KAEQLYIGVTV [EFHC2_Y509_E507Q] , write its reported phosphorylation enrichment.
2.33

Please supply the value of reported phosphorylation enrichment for the item SRGRQYQELPR [KCNH2_Y1009]
0.441

Note down phosphorylation enrichment recorded for IKGIRYLHHQG [GUCY2D_Y656_R660Q]
0.428

----------
# Tested System: Grb2 SH2 (UniProt P62993)
# Sequence (P62993 whole entry, looked up): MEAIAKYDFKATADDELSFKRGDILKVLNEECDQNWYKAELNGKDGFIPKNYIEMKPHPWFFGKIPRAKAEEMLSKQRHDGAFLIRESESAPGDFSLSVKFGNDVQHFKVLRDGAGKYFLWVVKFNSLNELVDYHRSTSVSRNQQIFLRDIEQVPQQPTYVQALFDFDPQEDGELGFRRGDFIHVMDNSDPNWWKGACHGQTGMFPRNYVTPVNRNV
# Assay: SH2 binding enrichment of the phosphorylated peptide, bacterial display (enrichment ratio); higher = better substrate or ligand; peptides without Tyr show the background
Measured Property: SH2 binding enrichment
# print the numeric value only

Worked cases, SH2 binding enrichment given:
Give me measured SH2 binding enrichment, please, for this sequence: GDFLSYREFHS [ERBIN_Y1107_YF]
0.741

Entry EREYKYGAHNH [OAT_Y50_Y55H] needs its SH2 binding enrichment filled in; supply it.
0.981

Give SH2 binding enrichment for ERFAFYRDSPR [FOXE3_Y108]
0.774

State, in one line, measured SH2 binding enrichment of KASRKYFAMKI [AKT3_Y173_G171R_YF]
0.796

Tell me its SH2 binding enrichment given PVDVAYRRGFF [PLEC_Y2967_YF] as the entry.
0.696

---
State, in one line, measured SH2 binding enrichment of LRSELYSLIAR [PHIP_Y16_F17S]
1.15

Provide one value: measured SH2 binding enrichment of LFQAKYQIRYR [CRLF1_Y272]
1.46

Answer with the recorded SH2 binding enrichment of HLVSEYQQYQD [TUBB3_Y422_D417H] only.
0.956

Could you please provide reported SH2 binding enrichment for EFEGLYQEGGG [TMEM159_Y159] ? Thanks!
1.51

Note down SH2 binding enrichment recorded for NESVDYRATFP [MET_Y1003]
0.748

Report measured SH2 binding enrichment; entry is CTTIHYNFTCN [TP53_Y234_M237T_YF]
1.96

For LLQKTYNYNVL [SLC4A1_Y553_P548L] , write its SH2 binding enrichment.
1.26

Indicate the recorded SH2 binding enrichment value for this sequence: LLREWYVQDPF [SIX3_Y225_L226V_YF]
1.03

Specify measured SH2 binding enrichment for RSACTYLASHL [PLK3_Y615] .
1.04

Supply SH2 binding enrichment value. Item: NALVQYQEMEK [BBS4_Y395_A393V]
1.04

Identify SH2 binding enrichment associated with the sequence TEQDPSNNIVR [MMUT_Y364_Y364S]
0.969

Read the entry IHHIDYFKKTT [FGFR1_Y653_YF] and write its reported SH2 binding enrichment.
0.585

# return recorded SH2 binding enrichment for entry MICSAYALGGL [CPS1_Y590_R587C]
0.764

Determine from records and report SH2 binding enrichment for LITTLYSGFLG [KCNQ1_Y267_I268S]
1.54

Tell us which SH2 binding enrichment value is on record for VRFTEYETQVK [TARDBP_Y155]
0.813

Tell us which SH2 binding enrichment value is on record for KELAKYFKLHH [AK7_Y390_N389K_YF]
0.759

// fetch SH2 binding enrichment given entry AEEEIYGIFGA [SRCtide_2014]
0.775

Return SH2 binding enrichment (reported value) for this sequence: LDPDSYNVFEN [FOXC1_Y159_M161V]
0.74

Indicate its recorded SH2 binding enrichment; the sequence in question is PYRFIYMAVQH [PTPN11_Y515_Q510P]
1.07

Tell us which SH2 binding enrichment value is on record for FSCLPCGRLAF [SLC52A2_Y305_Y305C_YF]
1.36

Specify measured SH2 binding enrichment for TSSAGYRAAEG [COL6A3_Y543] .
0.903
